- Target of assay: human INPP5K-cd (catalytic domain, 1-328) (Homo sapiens, UniProt Q9BT40)
- Construct: human INPP5K catalytic domain (amino acids 1–328, INPP5K-cd, UniProt ID: Q9BT40); His6-MBP (MBP amino acids 1–387) (N, cleaved yes); TEV protease site ENLYFQG (N, cleaved yes)
- Sequence (Q9BT40 1-328): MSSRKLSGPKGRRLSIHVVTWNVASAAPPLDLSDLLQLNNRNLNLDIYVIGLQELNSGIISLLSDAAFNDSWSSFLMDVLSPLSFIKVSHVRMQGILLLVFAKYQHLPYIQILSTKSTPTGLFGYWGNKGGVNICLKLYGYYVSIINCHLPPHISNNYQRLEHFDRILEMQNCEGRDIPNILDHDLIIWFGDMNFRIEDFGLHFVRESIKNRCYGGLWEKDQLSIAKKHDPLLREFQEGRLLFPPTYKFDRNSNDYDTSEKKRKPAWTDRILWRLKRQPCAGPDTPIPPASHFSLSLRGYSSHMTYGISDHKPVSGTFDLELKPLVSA
- Method: Fluorescence polarization assay to evaluate phosphatase inhibition
- Settings: 20 µM diC8-PI(3,4,5)P3, 30 min
- Experimental: The oligonucleotides used for vector construction were synthesized and purchased from GenScript Inc. (Tokyo, Japan). […] The concentration of protein obtained was measured using the Bradford method, with bovine serum albumin as the standard. Fractions corresponding to each purification step were analyzed by SDS-PAGE, followed by staining of the gel with Coomassie brilliant blue R-250. […]
Experimental endpoint: pIC50
Answers are plain numbers, as −log10 of the molar value.

Query: State pIC50 (human INPP5K-cd (catalytic domain, 1-328) (Homo sapiens, UniProt Q9BT40)) of CC(C)c1sc(NC(=O)c2ccccc2)c(C(=O)O)c1-c1ccccc1 [CPD-1] .
Response: 5.64
